The measurements presented in this section are drawn from the RNAGym collection of RNA variant scans (doi:10.7554/elife.80360).

B1: Hairpin Ribozyme (parent)
chain: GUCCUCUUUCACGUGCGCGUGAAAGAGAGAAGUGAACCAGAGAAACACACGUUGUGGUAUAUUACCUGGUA

Variants of: B1
test_details: self-cleavage, relative activity (ratio to wild type); higher = more cleavage; co-transcriptional
Please map values of self-cleavage to classes as shown: LOW = under 0.2, MID = from 0.2 up to 0.4, HIGH = 0.4 and over

{"columns": ["mutant_code", "class_name"],
 "data": [
  ["G13A A30U", "LOW"],
  ["U33G A45U", "LOW"],
  ["C4G U58A", "LOW"],
  ["A49U U52G", "MID"],
  ["U2G G40C", "LOW"],
  ["G27A U60A", "MID"],
  ["U7A G54C", "MID"],
  ["G19U U20A", "HIGH"],
  ["U8C C66G", "LOW"],
  ["C46U A59C", "MID"],
  ["A22G A41G", "HIGH"],
  ["C16U G54U", "HIGH"],
  ["G32A U58A", "LOW"],
  ["C46G G57U", "LOW"],
  ["U20A A22C", "MID"],
  ["A23U A61G", "LOW"],
  ["G32A U52C", "LOW"],
  ["A41C A61U", "MID"],
  ["G51A A71G", "HIGH"],
  ["A28G G57C", "MID"],
  ["G1C A36U", "MID"],
  ["U14C G21C", "HIGH"],
  ["C12G G13U", "HIGH"],
  ["U14G G56A", "LOW"],
  ["A11G G15A", "HIGH"],
  ["G17A G27U", "MID"],
  ["A30U U52G", "LOW"],
  ["U9G A41C", "HIGH"],
  ["A36U A41C", "HIGH"],
  ["C6U G68A", "MID"],
  ["A28C C65A", "MID"],
  ["A61U C65G", "LOW"],
  ["G21A A36G", "HIGH"],
  ["G1U U53G", "MID"],
  ["A11C C37A", "MID"],
  ["A22G A28G", "HIGH"],
  ["A49U U63A", "LOW"],
  ["U5C C12G", "MID"],
  ["G21C U52A", "HIGH"],
  ["G54C G68A", "LOW"],
  ["G13C G34A", "HIGH"],
  ["C16A A43G", "LOW"],
  ["A49G G54A", "HIGH"],
  ["A35U U67C", "LOW"],
  ["U2C G69U", "LOW"],
  ["C4A U63C", "LOW"],
  ["U8G U62C", "MID"],
  ["C50U U55A", "MID"],
  ["A30G A36C", "LOW"],
  ["C6G U53A", "HIGH"],
  ["A36G U60C", "HIGH"],
  ["G1A A64G", "LOW"],
  ["A39G U58C", "MID"],
  ["U5A A43U", "LOW"],
  ["G1A A26G", "LOW"]
]}
